Numbers sourced from patent US20240400708A1.

- target: feline FcRn complex (FcRn-α subunit and β-microglobulin), biotin labeled (feline)
- assay.protocol: SPR, pH 6
endpoint: pKd
Bear in mind: pKd is minus log10 of a mol/L concentration; give just that figure.

Need pKd, item feline IgG1a D399M (antibody, part only; not given: Variable domains, not shown: another chain or arm of the molecule) constant: ASTTAPSVFPLAPSCGTTSGATVALACLVLGYFPEPVTVSWNSGALTSGVHTFPAVLQASGLYSLSSMVTVPSSRWLSDTFTCNVAHPPSNTKVDKTVRKTDHPPGPKPCDCPKCPPPEMLGGPSIFIFPPKPKDTLSISRTPEVTCLVVDLGPDDSDVQITWFVDNTQVYTAKTSPREEQFNSTYRVVSVLPILHQDWLKGKEFKCKVNSKSLPSPIERTISKAKGQPHEPQVYVLPPAQEELSRNKVSVTCLIKSFHPPDIAVEWEITGQPEPENNYRTTPPQLMSDGTYFVYSKLSVDRSHWQRGNTYTCSVSHEALHSHHTQKSLTQSPGK
8.27
